The measurements presented in this section are drawn from PubChem BioAssay (EPA / NIEHS).

- Read-out: Monocyte Chemoattractant Protein-1 (MCP1), CCL2 (gene 6347)
- Assay procedure: BSK_SAg_MCP1: BioMAP Diversity Plus: SAg Assay for Monocyte Chemoattractant Protein-1 (MCP1) Biomarker Activity (AID 2283090)
- Condition info: primary human HUVEC with PBMC; actives raise or lower the signal
Calls of active or inactive are those of the source. How the source made its calls: active means hit-call score of the fitted dose curve at least 0.9, where 1 is the maximum; inactive means score below 0.9.
Give one outcome, nothing more. List: 1 (yes) = active, 0 (no) = inactive

Asked: Which outcome did this test record for the compound CC(O)C(F)(F)C(F)(F)F (stereo not given) ?
Given back: 0 (no)

Asked: Which outcome did this test record for the compound "COP(=O)(O)OC" ?
Given back: 0 (no)

Asked: Which outcome did this test record for the compound O=S1(=O)OCC2C(CO1)C1(Cl)C(Cl)=C(Cl)C2(Cl)C1(Cl)Cl (stereo not given) ?
Given back: 0 (no)

Asked: Which outcome did this test record for the compound "CCOP(=S)(OCC)SCSCC" ?
Given back: 0 (no)

Asked: Which outcome did this test record for the compound "c1ccc(OP(Oc2ccccc2)Oc2ccccc2)cc1" ?
Given back: 0 (no)

Asked: Which outcome did this test record for the compound "CCOc1ccc(C(C)(C)COCc2cccc(Oc3ccccc3)c2)cc1" ?
Given back: 0 (no)

Asked: Which outcome did this test record for the compound "O=C(O)C(F)(F)OC(F)(F)C(F)(F)OC(F)(F)F" ?
Given back: 0 (no)

Asked: Which outcome did this test record for the compound "CCOP(=S)(S)OCC" ?
Given back: 0 (no)

Asked: Which outcome did this test record for the compound ClC1=C(Cl)C2(Cl)C3C(Cl)C(Cl)CC3C1(Cl)C2(Cl)Cl (stereo not given) ?
Given back: 1 (yes)

Asked: Which outcome did this test record for the compound "O=c1ssc(Cl)c1Cl" ?
Given back: 1 (yes)

###

- Read-out: E-selectin (Homo sapiens)
- Assay procedure: BSK_LPS_Eselectin: BioMAP Diversity Plus: LPS Assay for Eselectin Biomarker Activity (AID 2283077)
- Condition info: primary human HUVEC with PBMC; actives raise or lower the signal
The source made the active and inactive calls. The calls were made as follows: active = hit-call score of the fitted dose curve at least 0.9, where 1 is the maximum; inactive = score below 0.9.
Give one outcome, nothing more. List: true (1) for active, false (0) for inactive

Asked: Which outcome did this test record for the molecule "O=C(O)C(F)(F)OC(F)(F)C(F)(F)OC(F)(F)C(=O)O" ?
Given back: false (0)

Asked: Which outcome did this test record for the molecule O=S1(=O)OCC2C(CO1)C1(Cl)C(Cl)=C(Cl)C2(Cl)C1(Cl)Cl (stereo not drawn) ?
Given back: false (0)

Asked: Which outcome did this test record for the molecule "C=CC(=O)OCC(CC)(COC(=O)C=C)COC(=O)C=C" ?
Given back: true (1)

Asked: Which outcome did this test record for the molecule "O=C(O)C=CC(F)(C(F)(F)F)C(F)(F)F" ?
Given back: false (0)

Asked: Which outcome did this test record for the molecule "CCCN(CCC)c1c([N+](=O)[O-])cc(C(C)C)cc1[N+](=O)[O-]" ?
Given back: true (1)

Asked: Which outcome did this test record for the molecule CCOP(=S)(Oc1ccc([N+](=O)[O-])cc1)c1ccccc1 (stereo not drawn) ?
Given back: false (0)

Asked: Which outcome did this test record for the molecule "OCC(F)(F)OC(F)(F)C(F)(F)OC(F)(F)C(F)(F)OC(F)(F)F" ?
Given back: false (0)

Asked: Which outcome did this test record for the molecule "O=[N+]([O-])c1ccccc1" ?
Given back: false (0)

Asked: Which outcome did this test record for the molecule O=P(OCC(Br)CBr)(OCC(Br)CBr)OCC(Br)CBr (stereo not drawn) ?
Given back: false (0)

Asked: Which outcome did this test record for the molecule "CCCCOCCOP(=O)(OCCOCCCC)OCCOCCCC" ?
Given back: false (0)

Asked: Which outcome did this test record for the molecule "O=P(Oc1ccccc1)(Oc1ccccc1)Oc1ccccc1" ?
Given back: false (0)

Asked: Which outcome did this test record for the molecule "Cc1ccc([N+](=O)[O-])cc1C" ?
Given back: false (0)

Asked: Which outcome did this test record for the molecule CC(O)C(F)(F)C(F)(F)F (stereo not drawn) ?
Given back: false (0)

Asked: Which outcome did this test record for the molecule "Cc1ccc(O)cc1C" ?
Given back: false (0)

Asked: Which outcome did this test record for the molecule "OCC(F)(F)OC(F)(F)C(F)(F)OC(F)(F)C(F)(F)OC(F)(F)CO" ?
Given back: false (0)

Asked: Which outcome did this test record for the molecule "O=c1ssc(Cl)c1Cl" ?
Given back: true (1)

Asked: Which outcome did this test record for the molecule "OCC(F)(F)OC(F)(F)C(F)(F)OC(F)(F)CO" ?
Given back: false (0)

Asked: Which outcome did this test record for the molecule "O=C(O)C(Cl)Cl" ?
Given back: false (0)

Asked: Which outcome did this test record for the molecule "Nc1ccc(Cl)cc1" ?
Given back: false (0)

Asked: Which outcome did this test record for the molecule FC(F)(F)C(F)(C(F)(F)F)C(F)(F)C(F)(F)CC1CO1 (stereo not drawn) ?
Given back: false (0)

Asked: Which outcome did this test record for the molecule "c1ccc2c(c1)Nc1ccccc1S2" ?
Given back: false (0)

Asked: Which outcome did this test record for the molecule "[N-]=[N+]=[N-]" ?
Given back: false (0)

Asked: Which outcome did this test record for the molecule "CCOC(=O)c1ccccc1C(=O)OCC" ?
Given back: false (0)

Asked: Which outcome did this test record for the molecule "CCCCCCCc1ccc(O)cc1" ?
Given back: true (1)

Asked: Which outcome did this test record for the molecule "O=C(O)C(F)(F)C(F)(F)C(=O)O" ?
Given back: false (0)

Asked: Which outcome did this test record for the molecule "CCOP(=S)(OCC)SCSc1ccc(Cl)cc1" ?
Given back: false (0)

Asked: Which outcome did this test record for the molecule "COP(N)(=S)OC" ?
Given back: false (0)

Asked: Which outcome did this test record for the molecule "ClC(Cl)c1ccccc1" ?
Given back: false (0)

###

- Assay procedure: BSK_4H_Eotaxin3: BioMAP Diversity Plus: 4H Assay for Eotaxin 3 Biomarker Activity (AID 2283000);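 on outcome: CCL26 protein level quantified by ELISA in parallel with SRB cytotoxicity check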
- Condition info: primary human endothelial cells (HUVEC); actives raise or lower the signal
Calls of active or inactive are those of the source. Rule for the calls: active = hit-call score of the fitted dose curve at least 0.9, where 1 is the maximum; inactive = score below 0.9.
Give one outcome, nothing more. List: T = active, F = inactive

Asked: Which outcome did this test record for the molecule "O=[N+]([O-])c1ccccc1" ?
Given back: F

Asked: Which outcome did this test record for the molecule "O=c1ssc(Cl)c1Cl" ?
Given back: T

Asked: Which outcome did this test record for the molecule "CCCN(CCC)c1c([N+](=O)[O-])cc(C(C)C)cc1[N+](=O)[O-]" ?
Given back: T

Asked: Which outcome did this test record for the molecule "CCCCN(CCCC)SN(C)C(=O)Oc1cccc2c1OC(C)(C)C2" ?
Given back: T

Asked: Which outcome did this test record for the molecule "Nc1ccc(Cl)cc1" ?
Given back: F

Asked: Which outcome did this test record for the molecule O=P(OCC(Br)CBr)(OCC(Br)CBr)OCC(Br)CBr (centres undefined) ?
Given back: F

Asked: Which outcome did this test record for the molecule FC(F)(F)C(F)(C(F)(F)F)C(F)(F)C(F)(F)CC1CO1 (centres undefined) ?
Given back: F

Asked: Which outcome did this test record for the molecule "COP(N)(=S)OC" ?
Given back: F

Asked: Which outcome did this test record for the molecule ClC1=C(Cl)C2(Cl)C3C(Cl)C(Cl)CC3C1(Cl)C2(Cl)Cl (centres undefined) ?
Given back: T

Asked: Which outcome did this test record for the molecule CCOP(=S)(NC(C)C)Oc1ccccc1C(=O)OC(C)C (centres undefined) ?
Given back: F

Asked: Which outcome did this test record for the molecule "O=S(=O)(F)C(F)(F)C(F)(F)C(F)(F)C(F)(F)C(F)(F)C(F)(F)C(F)(F)C(F)(F)F" ?
Given back: F

Asked: Which outcome did this test record for the molecule "CCNc1nc(Cl)nc(NC(C)(C)C)n1" ?
Given back: F

Asked: Which outcome did this test record for the molecule "c1ccc(OP(Oc2ccccc2)Oc2ccccc2)cc1" ?
Given back: F

Asked: Which outcome did this test record for the molecule COC(=O)C(F)(F)C(F)(F)OC(F)(C(F)(F)F)C(F)(F)OC(F)=C(F)F (centres undefined) ?
Given back: F

Asked: Which outcome did this test record for the molecule "Nc1cc2c3c(c1)C(c1ccccc1)=N[C@@H](NC(=O)c1cccnc1)C(=O)N3CC2" ?
Given back: F

Asked: Which outcome did this test record for the molecule "CC(Cl)(Cl)C(=O)O" ?
Given back: F

Asked: Which outcome did this test record for the molecule "CCOP(=S)(S)OCC" ?
Given back: F

Asked: Which outcome did this test record for the molecule "Nc1ccc2ccccc2c1" ?
Given back: T

Asked: Which outcome did this test record for the molecule "CSC(C)(C)C=NO" ?
Given back: F

Asked: Which outcome did this test record for the molecule "C=CC(=O)OCC(CC)(COC(=O)C=C)COC(=O)C=C" ?
Given back: T

Asked: Which outcome did this test record for the molecule CC(Cl)CN(C)C (centres undefined) ?
Given back: F

Asked: Which outcome did this test record for the molecule "O=C(O)C(Cl)Cl" ?
Given back: F

Asked: Which outcome did this test record for the molecule "Cc1ccc(N)cc1N" ?
Given back: F

Asked: Which outcome did this test record for the molecule OCC1CO1 (centres undefined) ?
Given back: F

Asked: Which outcome did this test record for the molecule "O=C(O)C(F)(F)OC(F)(F)C(F)(F)OC(F)(F)C(=O)O" ?
Given back: F

Asked: Which outcome did this test record for the molecule CCC1(c2ccccc2)C(=O)N=C(O)NC1=O (centres undefined) ?
Given back: F

Asked: Which outcome did this test record for the molecule "CCOS(=O)(=O)OCC" ?
Given back: F

Asked: Which outcome did this test record for the molecule "CC(C)(C)c1ccc(O)cc1" ?
Given back: F

Asked: Which outcome did this test record for the molecule "c1nc[nH]n1" ?
Given back: F
